system: C. albicans
Reported property: MIC

Which measured MIC value corresponds to COc1ccc(C2=CC(COC(=O)CCCl)OC2=O)cc1Br (centres unmarked) ?
4 to 8 µg/mL

Which measured MIC value corresponds to COc1ccc(C2=CC(COC(=O)c3ccccc3)OC2=O)cc1Br (centres unmarked) ?
> 2 µg/mL

Which measured MIC value corresponds to COc1ccc(C2=CC(COC(=O)c3cccs3)OC2=O)cc1Br (centres unmarked) ?
> 2 µg/mL

Which measured MIC value corresponds to O=C1OC(COC(=O)c2cc(Br)c(Br)s2)C=C1c1cccc(Br)c1 (centres unmarked) ?
1 to 2 µg/mL

Which measured MIC value corresponds to O=C1OC(COC(=O)c2ccccc2)C=C1c1cccc(F)c1 (centres unmarked) ?
1 to 2 µg/mL

Which measured MIC value corresponds to CC(=O)OCC1C=C(c2cccc(F)c2)C(=O)O1 (centres unmarked) ?
1 to 2 µg/mL

Which measured MIC value corresponds to COc1ccc(C2=CC(COC(=O)c3ccsc3)OC2=O)cc1Br (centres unmarked) ?
> 2 µg/mL

Which measured MIC value corresponds to COc1ccc(C2=CC(COC(=O)c3cc(Br)c(Br)s3)OC2=O)cc1Br (centres unmarked) ?
4 to 8 µg/mL

Which measured MIC value corresponds to O=C1OC(COC(=O)c2cc(Br)c(Br)s2)C=C1c1cccc(Cl)c1 (centres unmarked) ?
1 to 2 µg/mL

Which measured MIC value corresponds to O=C1OC(COC(=O)c2cccc(I)c2)C=C1c1cccc(Cl)c1 (centres unmarked) ?
> 2 µg/mL

Which measured MIC value corresponds to O=C1OC(COC(=O)c2ccc[nH]2)C=C1c1cccc(Br)c1 (centres unmarked) ?
1 to 2 µg/mL
